Target: target sequence AATTAATCAT (352 bp fragment, Plasmid C)
Assay: Quantitative DNase I footprint titration
Settings: 352 bp C, 22° C., pH 7.0, read-out: Dissociation Constant Kd
propertyName: Kd (nM)
Write the number in nM without appending the unit.

Worked set:
# compound, displayUnit, Kd
measured = [
    ("Cn1cc(NC(=O)c2cc(NC(=O)c3cc(NC(=O)c4sc5ccccc5c4Cl)cn3C)cn2C)cc1C(=O)NCCN1CCOCC1 [Compound 8]", "nM", 0.2),
    ("Cn1cc(NC(=O)c2cc(NC(=O)c3cc(NC(=O)c4sccc4Cl)cn3C)cn2C)cc1C(=O)NCCN1CCOCC1 [Compound 6]", "nM", 20),
    ("Cn1cc(NC(=O)c2sc3ccccc3c2Cl)cc1-c1nc2ccc(C(=O)NCCN3CCCCC3)cc2[nH]1 [Compound 18]", "nM", 5),
]

Q: Look up and state reported Kd for Cn1cc(NC(=O)c2cc(NC(=O)c3cc(NC(=O)c4cc5ccccc5cn4)no3)cn2C)cc1C(=O)NCCN1CCOCC1 [Compound 20]
A: 5
